measured.target: αvβ1 (Homo sapiens, UniProt P05556+P06756)
Sequence (P06756 31-992 limits assumed): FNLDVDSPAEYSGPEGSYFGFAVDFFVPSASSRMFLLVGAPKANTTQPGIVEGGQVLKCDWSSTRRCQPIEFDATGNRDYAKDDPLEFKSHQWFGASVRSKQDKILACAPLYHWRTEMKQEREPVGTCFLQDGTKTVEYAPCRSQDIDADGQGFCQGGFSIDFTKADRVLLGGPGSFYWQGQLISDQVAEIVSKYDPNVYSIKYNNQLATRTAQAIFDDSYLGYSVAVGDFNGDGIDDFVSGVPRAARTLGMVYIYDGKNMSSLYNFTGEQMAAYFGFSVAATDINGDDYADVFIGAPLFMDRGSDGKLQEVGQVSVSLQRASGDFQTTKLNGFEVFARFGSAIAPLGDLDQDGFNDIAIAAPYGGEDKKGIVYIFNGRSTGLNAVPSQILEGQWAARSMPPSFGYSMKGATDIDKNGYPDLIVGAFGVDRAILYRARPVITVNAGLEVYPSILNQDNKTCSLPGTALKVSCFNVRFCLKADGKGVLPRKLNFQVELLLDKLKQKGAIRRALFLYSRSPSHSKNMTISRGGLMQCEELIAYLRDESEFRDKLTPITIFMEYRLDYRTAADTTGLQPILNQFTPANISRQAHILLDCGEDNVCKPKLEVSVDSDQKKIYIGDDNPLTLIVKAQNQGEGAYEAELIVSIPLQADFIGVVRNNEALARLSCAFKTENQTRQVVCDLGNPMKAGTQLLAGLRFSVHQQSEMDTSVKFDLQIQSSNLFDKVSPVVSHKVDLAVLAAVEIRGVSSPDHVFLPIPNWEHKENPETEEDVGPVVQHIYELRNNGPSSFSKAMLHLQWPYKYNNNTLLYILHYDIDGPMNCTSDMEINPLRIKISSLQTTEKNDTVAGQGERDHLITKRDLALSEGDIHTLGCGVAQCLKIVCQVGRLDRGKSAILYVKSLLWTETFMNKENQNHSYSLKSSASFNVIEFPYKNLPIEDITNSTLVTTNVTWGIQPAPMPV
Sequence (P05556 21-728 limits assumed): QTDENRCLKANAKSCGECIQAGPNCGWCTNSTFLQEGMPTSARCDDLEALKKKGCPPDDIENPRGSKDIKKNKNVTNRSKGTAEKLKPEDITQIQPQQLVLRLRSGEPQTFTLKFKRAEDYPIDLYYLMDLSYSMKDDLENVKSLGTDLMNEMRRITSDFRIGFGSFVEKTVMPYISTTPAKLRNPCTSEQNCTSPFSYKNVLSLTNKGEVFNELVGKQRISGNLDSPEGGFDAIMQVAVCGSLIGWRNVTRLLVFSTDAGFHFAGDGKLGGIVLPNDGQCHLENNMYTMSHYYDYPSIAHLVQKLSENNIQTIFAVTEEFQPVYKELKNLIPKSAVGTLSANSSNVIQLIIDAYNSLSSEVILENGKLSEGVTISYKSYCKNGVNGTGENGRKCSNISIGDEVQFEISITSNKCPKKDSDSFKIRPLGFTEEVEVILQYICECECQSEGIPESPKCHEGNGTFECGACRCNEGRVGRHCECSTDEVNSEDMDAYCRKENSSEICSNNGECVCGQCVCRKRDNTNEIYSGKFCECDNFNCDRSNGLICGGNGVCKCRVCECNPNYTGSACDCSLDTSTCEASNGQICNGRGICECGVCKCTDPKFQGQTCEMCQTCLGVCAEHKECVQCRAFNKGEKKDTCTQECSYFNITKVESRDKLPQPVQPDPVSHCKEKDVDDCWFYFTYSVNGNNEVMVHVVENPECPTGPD
measurement.notes: Solid Phase Integrin αvβ1 Assay
pIC50: −log10 of the molar value.
Documented pIC50 across a set of compounds
measured.property: pIC50

>>> print(df.to_string())
                                   compound  measured_property    meas_value
0  O=C(O)C[C@H](NC(=O)[C@@H]1CCCN(CCCc2ccc3c(n2)NCCC3)C1)c1cnc2ccccc2n1 [Compound 539]              pIC50        > 7.00
1  O=C(N[C@@H](CNC(=O)[C@@H]1CCCN(CCCc2ccc3c(n2)NCCC3)C1)C(=O)O)C1CC2CCC1CC2 (stereo partly shown) [Compound 338]              pIC50        > 7.00
2  O=C(N[C@@H](CCO[C@@H]1CCCN(CCCc2ccc3c(n2)NCCC3)C1)C(=O)O)c1ccccc1 [Compound 469]              pIC50        > 7.00
3  CC1(C)CN(c2cccc([C@@H](NC(=O)[C@@H]3CCCN(CCCc4ccc5c(n4)NCCC5)C3)C(F)(F)C(=O)O)c2)CCO1 [Compound 300]              pIC50        > 7.00
4  CN(CC1(C)CCCCC1)[C@@H](CNC(=O)[C@@H]1CCCN(CCCc2ccc3c(n2)NCCC3)C1)C(=O)O [Compound 527]              pIC50  6.00 to 7.00
5  O=C(O)C[C@H](NC(=O)[C@@H]1CCCN(CCCc2ccc3c(n2)NCCC3)C1)c1ccc(F)c(C2CC2)c1 [Compound 244-A]              pIC50        > 7.00
6  O=C(O)[C@@H](CCO[C@@H]1CCCN(CCCc2ccc3c(n2)NCCC3)C1)NC(=O)[C@@H]1CCCN1S(=O)(=O)c1ccccc1 [Compound 495]              pIC50        > 7.00

---

Documented IC50 across a set of compounds
measured.target: αvβ1 (Homo sapiens, UniProt P05556+P06756)
measurement.notes: Solid Phase Integrin αvβ1 Assay
Where a name gives a salt, the structure may show the parent alone.
measured.property: IC50

                                    compound  measured_property      meas_value
 0  O=C(O)CC(CC(=O)N[C@H]1CCN(CCCCc2ccc3c(n2)NCCC3)C1)c1ccccc1 (stereo partly drawn)               IC50        < 100 nM
 1  O=C(O)[C@@H](CO[C@@H]1CCCN(Cc2ccc3c(n2)NCCC3)C1)Nc1ncnc2ccccc12               IC50       > 1000 nM
 2  C[C@@H]1C[C@H](C(=O)NC[C@@H](C(=O)O)c2ccc3ccccc3c2)CN(CCCc2ccc3c(n2)NCCC3)C1               IC50  100 to 1000 nM
 3  CC1(C)CN(c2cc(Cl)cc(C(CO[C@@H]3CCCN(CCCc4ccc5c(n4)NCCC5)C3)CC(=O)O)c2)CCO1 (stereo partly drawn)               IC50        < 100 nM
 4  O=C(O)C[C@H](NC(=O)[C@H]1CN(CCCc2ccc3c(n2)NCCC3)CC(F)(F)C1)c1ccccc1               IC50  100 to 1000 nM
 5  C[C@H]1CC[C@@H](C(=O)N[C@@H](CC(=O)O)c2ccccc2)CN1CCCc1ccc2c(n1)NCCC2               IC50       > 1000 nM
 6  O=C(O)[C@](O)(CO[C@@H]1CCCN(Cc2ccc3c(n2)NCCC3)C1)c1ccccc1               IC50       > 1000 nM
 7  O=C(O)[C@H](c1ccccc1)[C@H](O)CO[C@@H]1CCCN(CCCc2ccc3c(n2)NCCC3)C1               IC50       > 1000 nM
 8  O=C(N[C@@H](CCO[C@@H]1CCCN(CCCc2ccc3c(n2)NCCC3)C1)C(=O)O)c1cc(Cl)cc(Cl)c1               IC50        < 100 nM
 9  O=C(O)C[C@@H](CC[C@@H]1CCCN(CCCc2ccc3c(n2)NCCC3)C1)c1ccccc1               IC50        < 100 nM
10  O=C(O)C[C@H](NC(=O)[C@@H]1CCCN(CCCc2ccc3c(n2)NCCC3)C1)c1cnn(-c2ccccc2)c1               IC50        < 100 nM
11  O=C(Nc1ccccc1)N[C@@H](CNC(=O)[C@@H]1CCCN(CCCc2ccc3c(n2)NCCC3)C1)C(=O)O               IC50        < 100 nM
12  C[C@H]1CCN(CCCc2ccc3c(n2)NCCC3)C[C@H]1C(=O)N[C@@H](CC(=O)O)c1ccccc1               IC50       > 1000 nM
13  O=C(N[C@H](CCO[C@@H]1CCCN(CCCc2ccc3c(n2)NCCC3)C1)C(=O)O)c1c(F)cc(N2CCOC[C@@H]2C(F)(F)F)cc1F               IC50       > 1000 nM
14  O=C(NC[C@H](Nc1ccc(-c2ccccc2)nc1)C(=O)O)[C@@H]1CCCN(CCCc2ccc3c(n2)NCCC3)C1               IC50        < 100 nM
15  O=C(NC[C@H](Nc1ncnc2sccc12)C(=O)O)[C@@H]1CCCN(CCCc2ccc3c(n2)NCCC3)C1               IC50        < 100 nM
16  O=C(O)C[C@H](CN[C@@H]1CCCN(CCCc2ccc3c(n2)NCCC3)C1)c1ccccc1               IC50        < 100 nM
17  O=C(CC[C@@H](NC(=O)[C@H]1CCCN1S(=O)(=O)c1ccccc1)C(=O)O)N[C@H]1CCN(CCCCc2ccc3c(n2)NCCC3)C1               IC50  100 to 1000 nM
18  C[C@@H]1CN(c2cccc([C@H](CC(=O)O)NC(=O)[C@@H]3CCCN(CCCc4ccc5c(n4)NCCC5)C3)c2)C[C@H](C)O1 [Compound 236]               IC50        < 100 nM
19  O=C(NC[C@@H](Nc1ccc(-c2ccccc2)nc1)C(=O)O)[C@@H]1CCCN(CCCc2ccc3c(n2)NCCC3)C1               IC50        < 100 nM
20  O=C(N[C@@H](CNC(=O)[C@@H]1CCCN(CCCc2ccc3c(n2)NCCC3)C1)C(=O)O)c1ccccc1               IC50        < 100 nM
21  O=C(O)C[C@@H](NC(=O)[C@@H]1CCCN(CCCc2ccc3c(n2)NCCC3)C1)c1ccc2c(c1)C1(CC2)CC1               IC50  100 to 1000 nM
22  O=C(O)C[C@H](NC(=O)[C@@H]1CCCN(CCCc2ccc3c(n2)NCCC3)C1)c1cccc(N2CCOCC2)c1 [Compound 229, hydrochloride]               IC50        < 100 nM
23  O=C(NC[C@H](C(=O)O)c1cccc2ccccc12)[C@@H]1CCCN(CCCc2ccc3c(n2)NCCC3)C1               IC50  100 to 1000 nM
24  C[C@@H]1C[C@H](C(=O)NC[C@H](C(=O)O)c2ccc3ccccc3c2)CN(CCCc2ccc3c(n2)NCCC3)C1               IC50  100 to 1000 nM
25  O=C(O)C[C@H](CO[C@@H]1CCCN(CCCCc2ccc3c(n2)NCCC3)C1)c1ccccc1               IC50  100 to 1000 nM
26  O=C(NC1([C@H](C(=O)O)c2cccc(-c3ccccc3)c2)CC1)[C@@H]1CCCN(CCCc2ccc3c(n2)NCCC3)C1               IC50       > 1000 nM
